- stated.conditions: buffer; pH 7.4; 200.0 µM
Provide the reported solubility kinetic of each item.
Give bare numbers, in µg/mL.

The cases that follow already have their solubility kinetic on record.
[
  {
    "compound": "CCOCCCNC(c1ccccc1)c1ccncc1 (configuration not stated)",
    "unit.abbreviation": "µg/mL",
    "solubility kinetic": 38
  },
  {
    "compound": "O=[N+]([O-])c1cnccc1Nc1ccc(Cl)cc1",
    "unit.abbreviation": "µg/mL",
    "solubility kinetic": 16.6
  }
]

Turning now to a further compound:
Given the compound COc1cc(CN2CCCCCC2)cc(Br)c1O , what is its reported solubility kinetic? 39.6

---

Provide the reported solubility kinetic of each item.
- stated.conditions: buffer; pH 7.4; 200.0 µM
One number for each entry, in µg/mL.

[
  {
    "smiles.structure": "COc1ccc(CCNC(=O)CCc2ccc(OC)cc2)cc1",
    "solubility kinetic [µg/mL]": 11.4
  }
]

Record solubility kinetic for all entries; do not skip any.
1. COc1ccc(-c2cn(-c3ccccc3)c(=S)[nH]2)cc1OC
2. COc1nc(C)nc(C)c1Oc1ccc(Cl)cc1Cl

1. 22.6
2. 1.5

---

- stated.conditions: buffer; pH 7.4; 200.0 µM
metric: solubility kinetic

The cases that follow already have their solubility kinetic on record.
[
  {
    "compound": "COC(=O)c1c(C)oc(C)c1S(=O)(=O)NCc1ccc(OC)cc1",
    "solubility kinetic": "> 53 µg/mL"
  },
  {
    "compound": "Cc1cccc(NC(=O)c2ccc3c(c2)CCN3S(C)(=O)=O)c1C",
    "solubility kinetic": "1.6 µg/mL"
  },
  {
    "compound": "CCOC(=O)CC1C(=O)NCCN1C1CCCC1 (stereo unspecified)",
    "solubility kinetic": "> 38.1 µg/mL"
  },
  {
    "compound": "CC(NC(=O)OCc1ccccc1)c1ccccc1 (stereo unspecified)",
    "solubility kinetic": "> 38.3 µg/mL"
  },
  {
    "compound": "Cc1ccc(NC(=O)C2Oc3ccccc3OC2C)cc1 (stereo unspecified)",
    "solubility kinetic": "28 µg/mL"
  }
]

Turning now to a further compound:
Given the compound CCOCCn1c(-c2ccccc2)nc2ccccc21 , what is its reported solubility kinetic? 39.5 µg/mL

---

Provide the reported solubility kinetic of each item.
- stated.conditions: buffer; pH 7.4; 200.0 µM

The cases that follow already have their solubility kinetic on record.
[
  {
    "molecule": "O=C1OC(CCl)CN1Cc1c(Cl)cccc1Cl (centres undefined)",
    "solubility kinetic": "0.0419 mg/mL"
  },
  {
    "molecule": "O=C(Nc1cccc(C(=O)O)c1)Nc1ccc2c(c1)OCO2",
    "solubility kinetic": "> 0.045 mg/mL"
  },
  {
    "molecule": "COc1ccc(C(CC(=O)Nc2nccs2)C(C)C)cc1 (centres undefined)",
    "solubility kinetic": "0.0337 mg/mL"
  },
  {
    "molecule": "COc1ccc(CNC(=O)c2cc3cccc(O)c3oc2=N)cc1",
    "solubility kinetic": "0.0072 mg/mL"
  },
  {
    "molecule": "CC(C)c1ccc(NC(=O)NCc2ccccn2)cc1",
    "solubility kinetic": "> 0.0404 mg/mL"
  },
  {
    "molecule": "CCC(C)C(=O)Nc1ccc(S(=O)(=O)N2CCCC2)cc1 (centres undefined)",
    "solubility kinetic": "0.0423 mg/mL"
  },
  {
    "molecule": "O=C(O)C1C2CCC(C2)C1C(=O)NCCc1cccc(Cl)c1 (centres undefined)",
    "solubility kinetic": "> 0.0483 mg/mL"
  },
  {
    "molecule": "Cn1c(N)c(C(=O)COC(=O)c2cccc(S(=O)(=O)NCc3ccccc3)c2)c(=O)n(C)c1=O",
    "solubility kinetic": "0.0176 mg/mL"
  }
]

Record solubility kinetic for all entries; do not skip any.
1. CCC(CO)Nc1ncnc2onc(-c3ccc(F)cc3)c12 (centres undefined)
2. COc1ccc(NC2CCCN(C(=O)c3cccnc3)C2)cc1 (centres undefined)
3. Cc1ccc(NC(=O)CCN2C(=O)NC(C)(C)C2=O)cc1F
4. Cc1ccc(C)c(NC(=O)Cn2cc(C(=O)C3CC3)c3ccccc32)c1
5. CCNC(=S)N/N=C(\C)c1cccc(OC)c1
6. O=C(CSc1nc2ccccc2c(=O)[nH]1)Nc1ccccc1O
7. Oc1cccc2ccc(/C=C/c3ccccc3Cl)nc12
8. O=C(CN1C(=O)c2cccc([N+](=O)[O-])c2C1=O)NNC(=O)c1ccc(F)cc1

["> 0.0453 mg/mL", "> 0.0467 mg/mL", "> 0.0461 mg/mL", "< 0.0004 mg/mL", "> 0.0377 mg/mL", "0.0038 mg/mL", "< 0.0006 mg/mL", "> 0.0579 mg/mL"]
